testedOn: Human CD137 ECD (human)
Sequence (chain, as listed by the source limits assumed): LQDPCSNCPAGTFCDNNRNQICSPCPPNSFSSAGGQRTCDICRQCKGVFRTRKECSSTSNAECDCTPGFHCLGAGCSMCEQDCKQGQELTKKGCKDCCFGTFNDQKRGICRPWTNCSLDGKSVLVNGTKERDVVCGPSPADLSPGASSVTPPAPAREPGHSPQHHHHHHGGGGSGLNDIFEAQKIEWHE
assaySummary: single mutant vs template dBBDu183H
readoutName: fold change of affinity
Reply with the number, then its unit.

So what's the measured fold change of affinity for this one? H183/L072 VH M34N (antibody, name in Kabat numbering, V domains shown) VH: QVQLVESGGGLVQPGRSLRLSCAASGFTFSNAWNHWVRQAPGKGLEWVAQIKDKGNAYAAYYAPSVKGRFTISRDDSKNSIYLQMNSLKTEDTAVYYCHYVHYASASTVLPAFGVDAWGQGTTVTVSS VL: DIVMTQSPLSLPVTPGEPASISCQASQELVHMNRNTYLHWYQQKPGQAPRLLIYKVSNRFPGVPDRFSGSGSGTDFTLKISRVEAEDVGVYYCAQGTSVPFTFGQGTKLEIK 0 fold

Also need H183/L072 VH H35E (antibody, name in Kabat numbering, V domains shown) VH: QVQLVESGGGLVQPGRSLRLSCAASGFTFSNAWMEWVRQAPGKGLEWVAQIKDKGNAYAAYYAPSVKGRFTISRDDSKNSIYLQMNSLKTEDTAVYYCHYVHYASASTVLPAFGVDAWGQGTTVTVSS VL: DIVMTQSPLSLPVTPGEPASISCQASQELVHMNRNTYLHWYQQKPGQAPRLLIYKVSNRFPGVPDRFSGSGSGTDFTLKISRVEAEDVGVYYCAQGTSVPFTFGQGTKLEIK , thanks. 0 fold

Also need H183/L072 VH G26K (antibody, name in Kabat numbering, V domains shown) VH: QVQLVESGGGLVQPGRSLRLSCAASKFTFSNAWMHWVRQAPGKGLEWVAQIKDKGNAYAAYYAPSVKGRFTISRDDSKNSIYLQMNSLKTEDTAVYYCHYVHYASASTVLPAFGVDAWGQGTTVTVSS VL: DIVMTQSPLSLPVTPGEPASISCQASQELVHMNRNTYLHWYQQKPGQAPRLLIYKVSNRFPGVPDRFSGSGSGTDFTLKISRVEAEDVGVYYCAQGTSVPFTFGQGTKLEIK , thanks. 0 fold

Attribution: patent US20210388087A1
